These measurements were taken from patent US20210238197A1.

Test system: multiple species and strains
method: microbe, parasite or virus in culture
setup conditions: Klebsiella pneumoniae, ATCCBAA2146, read-out: MIC S6, K. pneumoniae ATCC BAA-2146
// NB: equality with 4 µg/mL counts as f; only MIC strictly below is t

# count of solved cases: 4
compound	discrete label
CNc1cc(F)c(F)c2c1[nH]c1ncc(-c3ccc4ccc(C(=O)O)c(=O)n4c3)c(N3CC[C@@]4(C[C@@H]4N)C3)c12 (single isomer, unassigned) [Example 4.01A]	t
CNc1cc(F)c(F)c2c1[nH]c1ncc(-c3ccc4ccc(C(=O)O)c(=O)n4c3)c(N3CCC4CN(C)C[C@@H]43)c12 (stereo in doubt)	t
CNc1cc(F)c(C#N)c2c1[nH]c1ncc(-c3ccc4ccc(C(=O)O)c(=O)n4c3)c(N3CC[C@H]4CCN(C)C4C3)c12 (stereo in doubt)	t
CNc1cc(F)c(F)c2c1[nH]c1ncc(-c3ccc4c(C)cc(C(=O)O)c(=O)n4c3)c(N3CC[C@H]4CN(C)C[C@H]43)c12 (relative stereo)	f

Inquiry: MIC strictly < 4 µg/mL for this compound? CNc1cc(F)c(F)c2c1[nH]c1ncc(-c3ccc4ccc(C(=O)O)c(=O)n4c3)c(N3CC[C@]4(C[C@@H]4N)C3)c12 [Example 4.01D]
Reply text: f

###

method: Single dose PK study (SDPK) in female CD-1 mouse
Format: in vivo
setup conditions: IV bolus, 1.0 mg/kg solution
// NB: equality with 200 ng·h/mL counts as -1; only AUC total strictly below is 1

In [3]: df
Out[3]:
                                   compound  discrete_label
0  CNc1cc(F)c(Cl)c2c1[nH]c1ncc(-c3ccc4ccc(C(=O)O)c(=O)n4c3)c(N3CC[C@]4(C[C@@H]4N)C3)c12 [Example 5.01D]               1

Field: next compound
Inquiry: AUC total strictly < 200 ng·h/mL for this compound? CNc1cc(F)cc2c1[nH]c1nc(Oc3cnc(C)nc3)nc(N3C[C@H]4C[C@@H]3C[C@H]4N)c12 [GP-6, reference compound]
Reply text: 1

###

Tested on: multiple species and strains
method: microbe, parasite or virus in culture
setup conditions: Escherichia coli, ATCC25922, read-out: MIC S11, E. coli ATCC 25922
Form field: MIC (one value per entry).
I only need the number, in µg/mL, no unit after it.

Known results for molecules:
                                   molecule  recorded_value
0  CNc1cc(F)c(F)c2c1[nH]c1ncc(-c3ccc4ccc(C(=O)O)c(=O)n4c3)c(N3C[C@H]4CCN(C)[C@H]4C3)c12 [Example 3.03A]            0.08
1  CNc1cc(F)c(F)c2c1[nH]c1ncc(-c3ccc4ccc(C(=O)O)c(=O)n4c3)c(N3CC[C@H]4CCN(C)[C@H]4C3)c12 [Example 3.04A]           0.082

Let us move to another entry and its MIC.
# MIC (molecule: CNc1cc(F)c(F)c2c1[nH]c1ncc(-c3ccc4c(C)cc(C(=O)O)c(=O)n4c3)c(N3CC[C@H]4CN(C)C[C@H]43)c12 (relative stereo) ) is 0.173

###

method: Lyophilisation solubility assay (LYSA)
Type: physicochemical
setup conditions: aqueous buffer, thermodynamic from solid; 0.05 M phosphate buffer, pH 6.5; <1.0 = detection limit
measurement type: solubility thermodynamic

molecule	recorded value
CNc1cc(F)cc2c1[nH]c1nc(Oc3cnc(C)nc3)nc(N3C[C@H]4C[C@@H]3C[C@H]4N)c12 [GP-6, reference compound]	< 1 µg/mL
CNc1cc(Cl)cc2c1[nH]c1ncc(-c3ccc4ccc(C(=O)O)c(=O)n4c3)c(N3CC[C@H]4CN(C)C[C@H]43)c12 (relative stereo)	29 µg/mL
CNc1cc(F)cc2c1[nH]c1ncc(-c3ccc4ccc(C(=O)O)c(=O)n4c3)c(N3CCO[C@H](CN(C)C)C3)c12	48 µg/mL
CNc1cc(F)c(F)c2c1[nH]c1ncc(-c3cc(F)c4ccc(C(=O)O)c(=O)n4c3)c(N3CC[C@H]4CN(C)C[C@H]43)c12 (relative stereo)	58 µg/mL
CNc1cc(F)c(F)c2c1[nH]c1ncc(-c3ccc4c(CN5CCOCC5)cc(C(=O)O)c(=O)n4c3)c(N3CC[C@H]4CN(C)C[C@H]43)c12 (relative stereo)	795 µg/mL
CNc1cc(F)c(F)c2c1[nH]c1ncc(-c3ccc4ccc(C(=O)O)c(=O)n4c3)c(N3CC[C@H]4CN(C)C[C@H]43)c12	460 µg/mL
CNc1cc(F)c(F)c2c1[nH]c1ncc(-c3ccc4c(CN(C)C)cc(C(=O)O)c(=O)n4c3)c(N3CC[C@H]4CN(C)C[C@H]43)c12 (relative stereo)	> 1060 µg/mL
CNc1cc(F)c(F)c2c1[nH]c1ncc(-c3ccc4c(CN5CCCC5)cc(C(=O)O)c(=O)n4c3)c(N3CC[C@H]4CN(C)C[C@H]43)c12 (relative stereo)	> 940 µg/mL
CNc1cc(F)cc2c1[nH]c1ncc(-c3ccc4ccc(C(=O)O)c(=O)n4c3)c(N3CCC4(C)CN(C)CC34)c12 (stereo not drawn)	90 µg/mL
CNc1cc(F)c(F)c2c1[nH]c1ncc(-c3ccc4c(C(F)(F)F)cc(C(=O)O)c(=O)n4c3)c(N3CC[C@H]4CN(C)C[C@H]43)c12 (relative stereo)	7 µg/mL

Let us move to another entry and its solubility thermodynamic.
# solubility thermodynamic (molecule: CNc1cc(F)cc2c1[nH]c1ncc(-c3ccc4ccc(C(=O)O)c(=O)n4c3)c(N3CC[C@H]4CN(C)C[C@H]43)c12 (single isomer, unassigned) [Example 3.02A] ) is 559 µg/mL

###

Tested on: multiple species and strains
method: microbe, parasite or virus in culture
Design: unit not given beside the values
setup conditions: E. coli ATCC 35218
Form field: MIC S9 (one value per entry).
Lab note: jot down the number only; don't add units.

# MIC S9 (compound: CNc1cc(F)c(F)c2c1[nH]c1ncc(-c3ccc4ccc(C(=O)O)c(=O)n4c3)c(N3CC[C@H]4CN(C)C[C@H]43)c12 ) is 0.128

# MIC S9 (compound: CNc1cc(F)c(F)c2c1[nH]c1ncc(-c3ccc4ccc(C(=O)O)c(=O)n4c3)c(N3CC[C@H]4CCN(C)[C@H]4C3)c12 [Example 3.04A] ) is 0.218

# MIC S9 (compound: CNc1cc(F)c(C#N)c2c1[nH]c1ncc(-c3ccc4ccc(C(=O)O)c(=O)n4c3)c(N(C)C)c12 ) is 0.046

# MIC S9 (compound: CNc1cc(F)c(F)c2c1[nH]c1ncc(-c3ccc4ccc(C(=O)O)c(=O)n4c3)c(N3CC[C@]4(C[C@@H]4N)C3)c12 [Example 4.01D] ) is 1.186

# MIC S9 (compound: CNc1cc(F)c(Cl)c2c1[nH]c1ncc(-c3ccc4ccc(C(=O)O)c(=O)n4c3)c(N3CC[C@]4(C[C@H]4N)C3)c12 [Example 5.01B] ) is 0.516

# MIC S9 (compound: CNc1cc(F)c(Cl)c2c1[nH]c1ncc(-c3ccc4ccc(C(=O)O)c(=O)n4c3)c(N3CC[C@@]4(C[C@@H]4N)C3)c12 (single isomer, unassigned) [Example 5.01A] ) is 0.516

###

Form field: MIC (one value per entry).
System: multiple species and strains
method: microbe, parasite or virus in culture
setup conditions: Acinetobacter baumannii, ATCCBAA747, read-out: MIC S3, A. baumannii ATCC BAA-747
Procedure: The MIC of antibacterial compounds against multiple species and strains was determined using the broth microdilution method according to M07-A10 Clinical and Laboratory Standards Institute (CLSI) guidelines (CLSI (2015) Methods for dilution antimicrobial susceptibility tests for bacteria that grow aerobically; Approved Standard, Tenth Edition. CLSI Document M7-A10 (ISBN 1-56238-987-4). Wayne, Pa.: Clinical and Laboratory Standards Institute, 19087, USA.). […]

Known results for compounds:
compound	MIC
CNc1cc(F)c(F)c2c1[nH]c1ncc(-c3ccc4c(C)cc(C(=O)O)c(=O)n4c3)c(N3CC[C@H]4CN(C)C[C@H]43)c12 (relative stereo)	0.922 µg/mL
CNc1cc(F)c(F)c2c1[nH]c1ncc(-c3cc(C)c4ccc(C(=O)O)c(=O)n4c3)c(N(C)C)c12	0.746 µg/mL
CNc1cc(F)c(C#N)c2c1[nH]c1ncc(-c3ccc4ccc(C(=O)O)c(=O)n4c3)c(N(C)C)c12	0.184 µg/mL
CNc1cc(F)c(F)c2c1[nH]c1ncc(-c3ccc4ccc(C(=O)O)c(=O)n4c3)c(N3CC[C@@H]4CCN(C)[C@@H]4C3)c12 [Example 3.04B]	0.436 µg/mL
CNc1cc(F)c(C#N)c2c1[nH]c1ncc(-c3ccc4ccc(C(=O)O)c(=O)n4c3)c(N3CC[C@H]4CCN(C)C4C3)c12 (stereo in doubt)	0.882 µg/mL
CNc1cc(F)c(Cl)c2c1[nH]c1ncc(-c3ccc4ccc(C(=O)O)c(=O)n4c3)c(N3CC[C@H]4CN(C)C[C@H]43)c12	0.263 µg/mL
CNc1cc(F)c(C#N)c2c1[nH]c1ncc(-c3ccc4ccc(C(=O)O)c(=O)n4c3)c(N3CC[C@H]4CN(C)C[C@H]43)c12	0.215 µg/mL
CNc1cc(F)c(F)c2c1[nH]c1ncc(-c3ccc4ccc(C(=O)O)c(=O)n4c3)c(N3CC[C@]4(C[C@@H]4N)C3)c12 [Example 4.01D]	1.19 µg/mL
CNc1cc(F)c(Cl)c2c1[nH]c1ncc(-c3ccc4ccc(C(=O)O)c(=O)n4c3)c(N3CC[C@@]4(C[C@@H]4N)C3)c12 (single isomer, unassigned) [Example 5.01A]	1.03 µg/mL
CNc1cc(F)c(Cl)c2c1[nH]c1ncc(-c3ccc4ccc(C(=O)O)c(=O)n4c3)c(N3C[C@H]4CC[C@@H](N(C)C)[C@H]4C3)c12	0.548 µg/mL

Let us move to another entry and its MIC.
# MIC (compound: CNc1cc(F)c(F)c2c1[nH]c1ncc(-c3ccc4ccc(C(=O)O)c(=O)n4c3)c(N3CC[C@H]4CCN(C)[C@H]4C3)c12 [Example 3.04A] ) is 0.218 µg/mL
